Data origin, for the record: patent US20230399384A1

target: SARS-CoV-2 RBD protein (Sino Biological, Cat: 40592-V08B) (SARS-CoV-2, UniProt P0DTC2 319-541); assay: BLI (Octet), mAb on Protein A sensor
# label = Yes if kon >= 20000 M⁻¹ s⁻¹ else No

Please tell me: is the binder CoV2-19 (antibody, V domains shown) VH: QVQLVQSGAEMKKPGASVKVSCKTSGYTFTNSYIHWVRQAPGQGLEWMGWINPISGGTNYAQKFQGRVTMTRDTSINTAYMELSRLRSDDTAVYYCARDRGDYDYGWGTSPFYFDYWGQGTLVTVSS VL: AIQLTQSPSSLSASVGDRVTITCRTSHTVNSYLNWYQQEPGKAPKLLIYAASNLQSGVPSRFSGSGSGTDFSLTIHNLQPEDFATYYCQQSYRTPLTFGQGTKVDIK at or over 20000 M⁻¹ s⁻¹ in terms of kon? No

For CoV2-17 (antibody, V domains shown) VH: QVELVESGGGLVKPGGSLRLSCAASGFTFSSYSMNWVRQAPGKGLEWVSSISSSSSYIYYADSVKGRFTISRDNAKNSLYLQMNSLRAEDTAVYYCARGNVDIVATGEVDAFDIWGQGTMVSVSS VL: QAVVTQPPSASGTLGQRVTISCSGSSSTIGSNYVYWYQQLPGTAPKLLIYRNNQRPSGVPDRFSGSKSGTSASLAISGLRSEDEADYYCAAWDDSLSGYVFGTGTQLTVL then? No

For CoV2-32 (antibody, V domains shown) VH: EVQLVESGGGLVQPGRSLRLSCAAPRFTFDDYAIHWVRQVPGKGLEWVSGSSWNSGTIGYAPSVKGRFTISRDNAKNSLFLQMNSLRVEDTALYYCAILPGDYNRVADVFDIWGQGTMVIVSS VL: QAVVTQPPSVSGAPGQRVTISCTGSSSNIGAGYDVHWYQQLPGTAPKLLIYGNNNRPSGVPDRFSGSKSGTSASLAITGLQVEDEADYYCQSYDSSLSGYVFGTGTKVTVL then? No

For CoV2-01 (antibody, V domains shown) VH: QVLLVQSGAEMKKPGASVKVSCKTSGYTFTNSYIHWVRQAPGQGLEWMGWINPISGGTNYAQKFQGRVTMTRDTSINTAYMELSRLRSDDTAVYYCARDRGDYDYGWGTSPFYFDYWGQGTLVTVSS VL: DVQMTQSPSSLSASVGDRVTITCRASQSISRYLNWYQQKPGKAPKLLIYAASSLQSGVPSRFSGSGSGADFTLTISSLQPEDFATYYCQQSFSPPITFGQGTRLEIK then? Yes

For CoV2-11 (antibody, V domains shown) VH: QVELVESGGGLVQPGRSLRLSCEASGFSFDNYAMHWVRQTPGKGLEWVSGITGNSGTIGYADSVKGRFTISRDNAKNSLYLQMNRLRAEDTALYYCAKDTDYDSSGSYFDYWGQGTLVTVSS VL: QPVLTQPPSVAVAPGQTARITCGGKNIGRESVHWYQQKPDQAPVLVIYSDGDRPSGTSERFSGSRSGNAATLTISRVEAGDEADYFCQVWDPDTDHYVFGTGTELTVL then? Yes
